test.system: T1, Human CD137 ECD (human)
T1 construct: also called 4-1BB
T1 sequence (chain, as listed by the source limits assumed): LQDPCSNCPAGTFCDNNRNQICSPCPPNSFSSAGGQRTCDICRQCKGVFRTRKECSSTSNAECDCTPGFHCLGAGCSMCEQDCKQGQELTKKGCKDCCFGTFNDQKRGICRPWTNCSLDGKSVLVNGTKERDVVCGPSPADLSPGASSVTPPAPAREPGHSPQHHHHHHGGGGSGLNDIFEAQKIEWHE
method.notes: single mutant vs template dBBDu183H
Listed here: items and their measured fold change of affinity.
Expressed in fold, but write only the number.

H183/L072 VH G26H (antibody, name in Kabat numbering, V domains shown) VH: QVQLVESGGGLVQPGRSLRLSCAASHFTFSNAWMHWVRQAPGKGLEWVAQIKDKGNAYAAYYAPSVKGRFTISRDDSKNSIYLQMNSLKTEDTAVYYCHYVHYASASTVLPAFGVDAWGQGTTVTVSS VL: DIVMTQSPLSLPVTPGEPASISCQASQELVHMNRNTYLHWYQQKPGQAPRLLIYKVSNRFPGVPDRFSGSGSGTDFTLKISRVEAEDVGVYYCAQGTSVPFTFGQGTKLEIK : 0.4

Request: Note down fold change of affinity recorded for H183/L072 VH N31V (antibody, name in Kabat numbering, V domains shown) VH: QVQLVESGGGLVQPGRSLRLSCAASGFTFSVAWMHWVRQAPGKGLEWVAQIKDKGNAYAAYYAPSVKGRFTISRDDSKNSIYLQMNSLKTEDTAVYYCHYVHYASASTVLPAFGVDAWGQGTTVTVSS VL: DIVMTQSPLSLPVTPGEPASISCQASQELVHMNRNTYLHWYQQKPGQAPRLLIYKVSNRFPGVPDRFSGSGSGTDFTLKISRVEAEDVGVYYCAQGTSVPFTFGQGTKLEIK
Response: 0.2

Request: Note down fold change of affinity recorded for H183/L072 VH A32T (antibody, name in Kabat numbering, V domains shown) VH: QVQLVESGGGLVQPGRSLRLSCAASGFTFSNTWMHWVRQAPGKGLEWVAQIKDKGNAYAAYYAPSVKGRFTISRDDSKNSIYLQMNSLKTEDTAVYYCHYVHYASASTVLPAFGVDAWGQGTTVTVSS VL: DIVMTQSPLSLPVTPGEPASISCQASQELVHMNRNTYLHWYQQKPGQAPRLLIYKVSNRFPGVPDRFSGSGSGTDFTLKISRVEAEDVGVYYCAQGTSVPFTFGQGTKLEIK
Response: 3.9
